Target: P2X purinoceptor 7 (Rattus norvegicus, UniProt Q64663)
Sequence (Q64663 whole entry): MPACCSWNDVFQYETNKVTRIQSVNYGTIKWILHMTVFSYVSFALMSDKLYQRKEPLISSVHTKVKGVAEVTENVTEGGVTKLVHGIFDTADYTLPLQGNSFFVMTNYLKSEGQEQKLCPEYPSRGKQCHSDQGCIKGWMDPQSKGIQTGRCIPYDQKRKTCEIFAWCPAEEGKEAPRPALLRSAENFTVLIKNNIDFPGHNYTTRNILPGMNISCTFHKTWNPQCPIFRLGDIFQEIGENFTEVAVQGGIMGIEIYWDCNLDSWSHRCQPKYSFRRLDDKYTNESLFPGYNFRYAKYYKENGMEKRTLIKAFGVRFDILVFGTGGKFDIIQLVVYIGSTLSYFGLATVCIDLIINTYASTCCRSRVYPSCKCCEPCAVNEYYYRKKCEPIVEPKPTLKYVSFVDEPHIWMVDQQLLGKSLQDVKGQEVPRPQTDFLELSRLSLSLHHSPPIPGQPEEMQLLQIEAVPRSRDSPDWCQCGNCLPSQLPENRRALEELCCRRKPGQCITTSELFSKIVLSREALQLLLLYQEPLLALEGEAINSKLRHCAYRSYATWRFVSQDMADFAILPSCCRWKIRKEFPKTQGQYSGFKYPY
Experiment: Antagonist activity at rat P2X7 receptor by calcium flux assay
ENDPOINT_NAME: IC50

[in] Notebook entry, P2X purinoceptor 7 (Rattus norvegicus, UniProt Q64663) assay: IC50 of CC1CC(F)(F)CCN1Cn1c(Cc2c(F)cccc2Cl)noc1=O (centres undefined) = ?
[out] < 0.2 µM

[in] Query IC50 on P2X purinoceptor 7 (Rattus norvegicus, UniProt Q64663) for Cc1ncccc1Cc1noc(=O)n1CC1CCC(F)(F)CC1
[out] 1 µM

[in] Which IC50 is reported with P2X purinoceptor 7 (Rattus norvegicus, UniProt Q64663) for this entry: O=c1snc(Cc2c(F)cccc2Cl)n1CC1CCC(F)(F)CC1 ?
[out] < 0.2 µM

[in] Return IC50 measured with P2X purinoceptor 7 (Rattus norvegicus, UniProt Q64663) given this compound: O=c1onc(Cc2ccc(Cl)cc2Cl)n1CC1CCC(F)(F)CC1
[out] < 0.2 µM
